B1: Hairpin Ribozyme (parent)
chain: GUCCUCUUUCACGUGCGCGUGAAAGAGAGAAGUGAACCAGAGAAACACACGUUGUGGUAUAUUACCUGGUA

Variants of: B1
Protocol: self-cleavage, relative activity (ratio to wild type); higher = more cleavage; co-transcriptional
Measured Parameter: self-cleavage
API doc: respond with a numeric literal and nothing else, no unit.

Report self-cleavage for G42A A45U please.
0.109

Next record, please: C10U G34A
1.04

Another variant to look at: A24G A28G
0.882

Another variant: U7C C18A
0.973

What do you have for A39G G54A ?
0.143

C65G A71C ?
0.697

Next variant up: U7C G19A
0.559

Repeat for the following variant: G40A U63G
0.126

Consider next the variant A23U C46A in the same way.
0.224

Now this one: G29U G54A
0.104

Request: G51C U52G
0.469

Please answer likewise for U14C U67C
0.227

And then C4A A49C , what is it?
0.213

Moving on to the next variant: A11C A30U
0.177

Another variant to look at: A39G A44U
0.103

Another variant to check: C3U A24U
0.491

# repeat for U2C U62C
0.203

Also C12G U62C , if possible.
0.235

And what about the variant G15U C50A ?
0.274

Let us now turn to G21U A22U
0.809

For C46U U58C then?
0.221

Also U9C A39C , if possible.
0.366

Follow-up entry: U53G U67A
0.182

Another variant: U53G G68C
0.18

Lookup C38U A71G
0.681

Subsequent entry: C16A U53C
0.753

Consider next the variant U53C C65A in the same way.
1.06

Try G13A U60G next.
0.374

Try C10G A22C next.
0.597

And what about the variant G21A U52G ?
0.784

Please give the result for G21U C38A too.
0.184

What do we get for G25U A26G ?
0.421

Another variant to look at: U9G C46U
0.0772

Try this variant too: C38G G51A
0.271

Moving on to the next variant: A11U C46G
0.0538

How about U52G A64C ?
0.0463

Now try C48G G69C .
0.0597

Same thing, different variant: G51A G68A
0.555

Moving on to the next variant: A39U G56C
0.169

Entry C50A G68U please
0.15

Also G42U A71G , if possible.
0.393

# iterate: A35C G68U
0.226

Another variant to look at: G13U G42C
0.227

Similarly, C38G A44U ?
0.207

And then G21A A64G , what is it?
0.418

Request: G32A G57C
0.117
